ASSAY SUMMARY: inhibitors of cytokine-induced beta cell apoptosis, primary screen, luminescence (AID 435005);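 also: 0% = cytokine-treated negative control wells and 100% = positive control rescue; higher means more ATP so stronger rescue from cytokine killing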
SETTINGS: INS-1E cytokine-induced death, ATP luminescence, 48 h; active compounds read high; percent of positive-control rescue, neutral wells zero; concentration not given here
Screen size: about 300,000 compounds; about 2,400 (0.8%) were called active. The sample as a whole holds a higher share of actives than the screen did.
# protection from apoptosis annotations
MEASURE NAME: protection from apoptosis (%)

molecule="CC1(C)CC[C@@]2(C(=O)O)C(C1)C1=CCC3[C@@]4(C)CC[C@H](O)C(C)(C)C4CC[C@@]3(C)[C@]1(C)C[C@H]2O (stereo partly drawn)" experimental_result=22.4
molecule=CCOc1cc2ccccc2cc1C(=O)Nc1ccccn1 experimental_result=-5.78
molecule="CC1CCCCC1NCC(=O)Nc1ccccc1C(=O)Nc1ccccc1 (stereo not drawn)" experimental_result=4.75
